SYSTEM: Pyruvate dehydrogenase kinase (Homo sapiens, UniProt Q15119+Q15120+Q16654+Q15118)
EXPERIMENT DESCRIPTION: Binding affinity to pyruvate dehydrogenase kinase (unknown origin) by VER-00160364 probe based fluorescence polarization assay
METRIC NAME: IC50 (nM)
Number only, in nM; omit the unit.

Study these solved cases before continuing.
Cc1nc(C)c(-c2ccc3c(c2)CCC(C)N3C(=O)c2cc(Cl)c(O)cc2O)s1 (stereo not given) = 1000
CCCc1cncnc1-c1ccc2c(c1)CC[C@H](C)N2C(=O)c1ccc(O)cc1O = 100
CNc1ccc(-c2ccc3c(c2)CC[C@H](C)N3C(=O)c2ccc(O)cc2O)c(C)n1 = 100
C[C@H]1CCc2cc(-c3nc4cc(Cl)ccc4o3)ccc2N1C(=O)c1ccc(O)cc1O = 10000

Param item = Cc1n[nH]c(C)c1C1CCc2ccccc2N1C(=O)c1ccc(O)cc1O (stereo not given) ; retrieve measured IC50.
1000

---

SYSTEM: Pyruvate dehydrogenase kinase (Homo sapiens, UniProt Q15119+Q15120+Q16654+Q15118)
EXPERIMENT DESCRIPTION: Binding affinity to pyruvate dehydrogenase kinase (unknown origin) by VER-00160364 probe based fluorescence polarization assay
Below, each of the compounds is paired with its reported IC50 value.
Number only, in nM; omit the unit.

Study these solved cases before continuing.
CCN(CC)S(=O)(=O)c1ccc2c(c1)CCC(C)N2C(=O)c1ccc(O)cc1O (centres undefined) = 100
C[C@H]1CCc2cc(-c3nc(-c4ccccc4)nc4ccccc34)ccc2N1C(=O)c1ccc(O)cc1O = 1000
Cc1cc(S(=O)(=O)NCCCC(N)=O)cnc1-c1ccc2c(c1)CC[C@H](C)N2C(=O)c1ccc(O)cc1O = 10
Cc1cc2cccc(C)c2nc1-c1ccc2c(c1)CC[C@H](C)N2C(=O)c1ccc(O)cc1O = 1000
C[C@H]1CCc2cc(-c3ncncc3C#N)ccc2N1C(=O)c1ccc(O)cc1O = 100
Cc1cc2ccc(F)cc2nc1-c1ccc2c(c1)CC[C@H](C)N2C(=O)c1ccc(O)cc1O = 100
Cc1cc(-c2ccc3c(c2)CC[C@H](C)N3C(=O)c2ccc(O)cc2O)cnc1Cl = 1000
Cc1cnc(Cl)nc1-c1ccc2c(c1)CC[C@H](C)C2C(=O)c1ccc(O)cc1O (some centres undefined) = 10

Param item = C[C@H]1CCc2cc(-c3cc4cncnc4[nH]3)ccc2N1C(=O)c1ccc(O)cc1O ; retrieve measured IC50.
10

Param item = Cc1cnc(C)c(-c2ccc3c(c2)CCC(c2cccnc2)N3C(=O)c2ccc(O)cc2O)n1 (centres undefined) ; retrieve measured IC50.
10

Param item = Cc1cncnc1-c1ccc2c(c1)CC[C@H](C)N2C(=O)c1ccc(O)cc1O ; retrieve measured IC50.
100

---

SYSTEM: Pyruvate dehydrogenase kinase (Homo sapiens, UniProt Q15119+Q15120+Q16654+Q15118)
EXPERIMENT DESCRIPTION: Inhibition of pyruvate dehydrogenase kinase in human PC3 cells incubated for 90 mins by phospho(Ser293)E1alpha MSP ELISA method
Format: cell-based
RUN PARAMETERS: pc-3
METRIC NAME: IC50

Study these solved cases before continuing.
Cc1cc2ccccc2nc1-c1ccc2c(c1)CC[C@H](C)N2C(=O)c1ccc(O)cc1O = 1000 nM
C[C@H]1CCc2cc(C(=O)N(C)Cc3cccc4ccccc34)ccc2N1C(=O)c1ccc(O)cc1O = 1000 nM
C[C@H]1CCc2cc(C(=O)N(C)Cc3ccc4nccnc4c3)ccc2N1C(=O)c1ccc(O)cc1O = 1000 nM

Param item = C[C@H]1CCc2cc(-c3ncnc4cccc(F)c34)ccc2N1C(=O)c1ccc(O)cc1O ; retrieve measured IC50.
1000 nM

Param item = Cc1cc(S(=O)(=O)NCc2cccs2)cnc1-c1ccc2c(c1)CC[C@H](C)N2C(=O)c1ccc(O)cc1O ; retrieve measured IC50.
1000 nM

---

SYSTEM: Pyruvate dehydrogenase kinase (Homo sapiens, UniProt Q15119+Q15120+Q16654+Q15118)
EXPERIMENT DESCRIPTION: Binding affinity to pyruvate dehydrogenase kinase (unknown origin) by VER-00160364 probe based fluorescence polarization assay
Below, each of the molecules is paired with its reported IC50 value.
Number only, in nM; omit the unit.

O=C(c1ccc(O)cc1O)N1CCCc2cc(F)ccc21 = 100
CCc1nccnc1-c1ccc2c(c1)CCC(c1cccnc1)N2C(=O)c1ccc(O)cc1O (stereo not given) = 10
C[C@H]1CCc2cc(-c3ccc(N4CCOCC4)nn3)ccc2N1C(=O)c1ccc(O)cc1O = 1000

Param item = O=C(c1ccc(O)cc1O)N1CCCc2cc(-c3ncccc3Cl)ccc21 ; retrieve measured IC50.
1000

Param item = CC1CCc2cc(-c3nccn3C)ccc2N1C(=O)c1cc(Cl)c(O)cc1O (stereo not given) ; retrieve measured IC50.
1000

Param item = Cc1ccc(-c2ccc3c(c2)CC[C@H](C)N3C(=O)c2ccc(O)cc2O)c(Cl)c1 ; retrieve measured IC50.
1000

---

Below, each of the compounds is paired with its reported IC50 value.
SYSTEM: Pyruvate dehydrogenase kinase (Homo sapiens, UniProt Q15119+Q15120+Q16654+Q15118)
EXPERIMENT DESCRIPTION: Binding affinity to pyruvate dehydrogenase kinase (unknown origin) by VER-00160364 probe based fluorescence polarization assay
Write the figure, then the unit, nothing else.

Study these solved cases before continuing.
CC1CCc2cc(-c3ncccc3C#N)ccc2N1C(=O)c1cc(Cl)c(O)cc1O (stereo not given) = 1000 nM
Cc1cc2ccccc2nc1-c1ccc2c(c1)CC[C@H](C)N2C(=O)c1ccc(O)cc1O = 100 nM
CC1CCc2cc(C(=O)N(C)Cc3cnn(C)c3)ccc2N1C(=O)c1ccc(O)cc1O (stereo not given) = 100 nM

Param item = C[C@H]1CCc2cc(-c3nc(C(F)(F)F)ccc3C(F)(F)F)ccc2N1C(=O)c1ccc(O)cc1O ; retrieve measured IC50.
1000 nM

Param item = CC1CCc2cc(C(=O)N(C)Cc3ccc(Cl)cc3)ccc2N1C(=O)c1ccc(O)cc1O (stereo not given) ; retrieve measured IC50.
10 nM

Param item = C[C@H]1CCc2cc(F)ccc2N1C(=O)c1ccc(O)cc1O ; retrieve measured IC50.
100 nM

---

Below, each of the compounds is paired with its reported IC50 value.
SYSTEM: Pyruvate dehydrogenase kinase (Homo sapiens, UniProt Q15119+Q15120+Q16654+Q15118)
EXPERIMENT DESCRIPTION: Binding affinity to pyruvate dehydrogenase kinase (unknown origin) by VER-00160364 probe based fluorescence polarization assay
Number only, in nM; omit the unit.

Study these solved cases before continuing.
Cc1cc(S(=O)(=O)NCC2CC2)cnc1-c1ccc2c(c1)CC[C@H](C)N2C(=O)c1ccc(O)cc1O = 100
C[C@H]1CCc2cc(-c3ncccc3C#N)ccc2N1C(=O)c1ccc(O)cc1O = 100
C[C@H]1CCc2cc(-c3ncnc4ccc(Cl)cc34)ccc2N1C(=O)c1ccc(O)cc1O = 100
CC(c1cc2ccccc2o1)N(C)C(=O)c1ccc2c(c1)CCC(C)N2C(=O)c1ccc(O)cc1O (stereo not given) = 100

In the following, a different compound is considered.
Param item = CSc1nc(-c2ccc3c(c2)CC[C@H](C)N3C(=O)c2ccc(O)cc2O)c2cc[nH]c2n1 ; retrieve measured IC50.
1000

---

SYSTEM: Pyruvate dehydrogenase kinase (Homo sapiens, UniProt Q15119+Q15120+Q16654+Q15118)
EXPERIMENT DESCRIPTION: Inhibition of pyruvate dehydrogenase kinase (unknown origin) assessed as reduction in E1 phosphorylation incubated for 1 hr by DELFIA method
Type: protein assay
METRIC NAME: IC50 (nM)
Number only, in nM; omit the unit.

Study these solved cases before continuing.
Cc1cc(S(=O)(=O)NCc2ccccc2)cnc1-c1ccc2c(c1)CCC(c1cccnc1)N2C(=O)c1ccc(O)cc1O (stereo not drawn) = 10
Cc1cnc(Cl)nc1-c1ccc2c(c1)CC[C@H](c1cccnc1)N2C(=O)c1ccc(O)cc1O = 100
Cc1cc(S(=O)(=O)N2CCC(F)(F)CC2)cnc1-c1ccc2c(c1)CCC(c1cccnc1)N2C(=O)c1ccc(O)cc1O (stereo not drawn) = 10

Param item = Cc1cc(S(=O)(=O)N2CC(F)(F)C2)cnc1-c1ccc2c(c1)CCC(c1cccnc1)N2C(=O)c1ccc(O)cc1O (stereo not drawn) ; retrieve measured IC50.
10

Param item = COc1cnc(Cl)nc1-c1ccc2c(c1)CC[C@H](c1cccnc1)N2C(=O)c1cc(Cl)c(O)cc1O ; retrieve measured IC50.
100

Param item = O=C(c1cc(Cl)c(O)cc1O)N1c2ccccc2CC[C@@H]1c1cccnc1 ; retrieve measured IC50.
100

Param item = O=C(c1ccc(O)cc1O)N1c2ccc(-c3ncnc4cccc(F)c34)cc2CCC1c1cccnc1 (stereo not drawn) ; retrieve measured IC50.
10

Param item = O=C(c1ccc(O)cc1O)N1c2ccccc2CCC1C(F)(F)F (stereo not drawn) ; retrieve measured IC50.
100
